- SYSTEM_TESTED: AChE (from drosophila) (Drosophila melanogaster)
- Construct: purchased Jing Peng Bio-Pesticide Co., Ltd. Shandong, P. R. China
- EXPERIMENT_SUMMARY: In vitro AChE inhibitory activity (Acetylcholinesterase Detection Kit)
- Type: biochemical
- STUDY_CONDITIONS: 1.5 mg/mL; compounds in 1% DMSO; mean ± SD, triplicate; read-out: AChE inhibitory activitiy % inhibition (1.5 mg/mL)
We use 40% as the dividing line for inhibition at 1500 µg/mL: on or above the line is yes (1), below is no (0).

[
  {
    "MOLECULE": "C[C@@H]1O[C@@H](OC[C@H]2O[C@@H](OCC=Cc3ccccc3)[C@H](O)[C@@H](O)[C@@H]2O)[C@H](O)[C@H](O)[C@H]1O",
    "SYSTEM_TESTED": "AChE (from drosophila) (Drosophila melanogaster)",
    "ASSIGNED_LABEL": "yes (1)"
  },
  {
    "MOLECULE": "OC[C@H]1O[C@@H](OC/C=C/c2ccccc2)[C@H](O)[C@@H](O)[C@@H]1O [Compound 10m, Cinnamyl β-D-glucopyranoside]",
    "SYSTEM_TESTED": "AChE (from drosophila) (Drosophila melanogaster)",
    "ASSIGNED_LABEL": "no (0)"
  },
  {
    "MOLECULE": "COc1ccc(C=CCO[C@@H]2O[C@H](CO)[C@@H](O)[C@H](O)[C@H]2O)cc1O [Compound 16d]",
    "SYSTEM_TESTED": "AChE (from drosophila) (Drosophila melanogaster)",
    "ASSIGNED_LABEL": "yes (1)"
  },
  {
    "MOLECULE": "COc1ccccc1C=CCO[C@@H]1O[C@H](CO)[C@@H](O)[C@H](O)[C@H]1O [Compound 10b, 2-Methoxycinnamyl β-D-glucopyranoside]",
    "SYSTEM_TESTED": "AChE (from drosophila) (Drosophila melanogaster)",
    "ASSIGNED_LABEL": "yes (1)"
  },
  {
    "MOLECULE": "OC[C@H]1O[C@@H](OCC=Cc2ccc(Cl)cc2)[C@H](O)[C@@H](O)[C@@H]1O [Compound 10j, 4-Chlorocinnamyl β-D-glucopyranoside]",
    "SYSTEM_TESTED": "AChE (from drosophila) (Drosophila melanogaster)",
    "ASSIGNED_LABEL": "yes (1)"
  },
  {
    "MOLECULE": "COc1ccc(C=CCO[C@@H]2O[C@H](CO)[C@@H](O)[C@H](O)[C@H]2O)cc1 [Compound 10a, 4-Methoxycinnamyl β-D-glucopyranoside]",
    "SYSTEM_TESTED": "AChE (from drosophila) (Drosophila melanogaster)",
    "ASSIGNED_LABEL": "no (0)"
  }
]
